Cited source for all entries: patent US10987357B2

# TEST_SUMMARY: Rat pharmacokinetic model (IV vs microspray aerosol, intratracheal)
# Assay type: in vivo, rats
# RUN_CONDITIONS: rat, in vivo, inhaled or intranasal; IT, 10 mg/kg; read-out: Serum t1/2 (converted)
MEASURE_NAME: half-life

// recorded half-life for C[C@H]1COc2c(N3CCN(C)CC3)c(F)cc3c(=O)c(C(=O)O)cn1c23 [Levofloxacin, levofloxacin] : 24 min

----------
# TEST_SUMMARY: physchem
MEASURE_NAME: pKa

Reported pKa of "C[C@H]1COc2c(N3CCN(C)CC3)c(F)cc3c(=O)c(C(=O)O)cn1c23" : 5.91

----------
# TEST_SUMMARY: Rat pharmacokinetic model (IV vs microspray aerosol, intratracheal)
# Assay type: in vivo, rats
# RUN_CONDITIONS: rat, epithelial lining fluid (ELF), iv, 10 mg/kg
# Method: […] Blood samples are taken at various times over 3 hours to determine the plasma pharmacokinetic parameters. […] The plasma and tissue concentrations are determined by an HPLC method and the data are then fit using WinNonlin.
MEASURE_NAME: AUC

As a guide, the following entries are already answered.
{"columns": ["MOLECULE", "AUC"],
 "data": [
  ["CCn1cc(C(=O)O)c(=O)c2cc(F)c(N3CCNCC3)cc21 [Norfloxacin]", "3270 ng·h/mL"],
  ["NC[C@H]1O[C@H](O[C@H]2[C@H](O)[C@@H](O[C@H]3O[C@H](CO)[C@@H](O)[C@H](N)[C@H]3O)[C@H](N)C[C@@H]2N)[C@H](N)C[C@@H]1O [Tobramycin]", "27600 ng·h/mL"],
  ["C[C@H]1COc2c(N3CCN(C)CC3)c(F)cc3c(=O)c(C(=O)O)cn1c23 [Levofloxacin, levofloxacin]", "10500 ng·h/mL"]
]}

Measured AUC of COc1c(N2CCNC(C)C2)c(F)cc2c(=O)c(C(=O)O)cn(C3CC3)c12 (stereo not shown) [Gatifloxacin] : 5320 ng·h/mL

----------
# TEST_SUMMARY: physchem
# RUN_CONDITIONS: 10 mg/mL in sterile water, room temperature
MEASURE_NAME: Initial Solution Appearance

{"columns": ["COMPOUND", "MEASURE_NAME", "RESULT_VALUE"],
 "data": [
  ["COc1c(N2CCNC(C)C2)c(F)cc2c(=O)c(C(=O)O)cn(C3CC3)c12 (centres unmarked)", "Initial Solution Appearance", "white, cloudy, visible"],
  ["C[C@@H]1CN(c2c(F)c(F)c3c(=O)c(C(=O)O)cn(C4CC4)c3c2F)C[C@H](C)N1", "Initial Solution Appearance", "white, cloudy, visible"]
]}

----------
# TEST_SUMMARY: physchem
# RUN_CONDITIONS: pKa of the basic site as stated in text
MEASURE_NAME: pKa

For this compound ( "C[C@H]1COc2c(N3CCN(C)CC3)c(F)cc3c(=O)c(C(=O)O)cn1c23" ), measured pKa is ~6.8

----------
# TEST_SUMMARY: Rat pharmacokinetic model (IV vs microspray aerosol, intratracheal)
# Assay type: in vivo, rats
# RUN_CONDITIONS: rat, serum, iv, 10 mg/kg; read-out: Serum t1/2 (converted)
# Description: […] Blood samples are taken at various times over 3 hours to determine the plasma pharmacokinetic parameters. […] The plasma and tissue concentrations are determined by an HPLC method and the data are then fit using WinNonlin.
MEASURE_NAME: half-life (min)
Numeric only. Scale: min

Given item "NC[C@H]1O[C@H](O[C@H]2[C@H](O)[C@@H](O[C@H]3O[C@H](CO)[C@@H](O)[C@H](N)[C@H]3O)[C@H](N)C[C@@H]2N)[C@H](N)C[C@@H]1O" , the value recorded as its half-life is 30
